Source: paper PMC4890880

System: Plasmodium berghei (Pb-Luc) exoerythrocytic-stage parasites
assay.text: microbe, parasite or virus in culture
measurement.conditions: read-out: Inhibition% @ 50 uM rep2
Please go through the items and note down their inhibition at 50 µM.
Numbers only, in %.

[
  {
    "molecule": "Cc1ccc(OCCCCCCNCCO)c(C)c1",
    "reading.unit": "%",
    "quantitative.result": 104
  },
  {
    "molecule": "CCOc1ccccc1CNC(=O)C1c2ccccc2C(=O)N(CC(C)C)C1c1cccs1 (stereo not drawn)",
    "reading.unit": "%",
    "quantitative.result": 106
  },
  {
    "molecule": "CCOC(=O)C1CCN(C(=O)CN2C(=O)c3ccccc3C2c2c[nH]c3ccccc23)CC1 (stereo not drawn)",
    "reading.unit": "%",
    "quantitative.result": 58
  },
  {
    "molecule": "CCCCN(CCCC)S(=O)(=O)c1ccc(NC(=O)c2ccco2)cc1",
    "reading.unit": "%",
    "quantitative.result": 99
  },
  {
    "molecule": "CN1CCN(c2nc(Nc3ccc(O)cc3)nc3ccccc23)CC1",
    "reading.unit": "%",
    "quantitative.result": 90
  }
]

For every item in the list below, what is its measured inhibition at 50 µM?
1. CCCc1cc(O)c2c3c(c(=O)oc2c1)CN(C)CC3
2. OC(CNCc1ccccc1)Cn1c2ccccc2c2ccccc21 (stereo not drawn)
3. Cc1cc(NC(=O)c2cccc(C(F)(F)F)c2)n(-c2nc(-c3ccc4c(c3)OCO4)cs2)n1
4. Cc1ccccc1OCCSc1nc2ccc(NC(=O)c3ccccc3)cc2s1
5. Cc1ccc2cc3c(N)c4c(C)ccc(C)c4nc3nc2c1
6. CCOc1ccc(CN2CCN(CC(O)COc3ccc(OCC(O)CN4CCN(Cc5ccc(OCC)cc5)CC4)cc3)CC2)cc1 (stereo not drawn)
7. O=C(NC1CCN(Cc2ccccc2)CC1)c1cc(C(=O)NC2CCN(Cc3ccccc3)CC2)cc(C(=O)NC2CCN(Cc3ccccc3)CC2)c1
8. CCn1c(SCC(=O)Nc2cc(C(F)(F)F)ccc2Cl)nc2ccccc2c1=O

Output line:
44
100
-36
103
104
104
104
87

For every item in the list below, what is its measured inhibition at 50 µM?
1. Cc1ccc(C)c(Cn2c(N3CCC(C(=O)NCc4cccs4)CC3)nc3ccccc32)c1
2. CCOc1cc(Cl)c(C(C)NC(=O)c2ccccc2)cc1OCC (stereo not drawn)

Output line:
[104, 93]

For every item in the list below, what is its measured inhibition at 50 µM?
1. O=c1cc(NC2CCN(CCCc3ccccc3)CC2)c2cc(Cl)ccc2o1
2. Cn1c(=O)c2cc(C(=O)NCCCN3CCCCCC3)sc2c2ccccc21
3. O=C(Nc1ccccc1O)c1ccc(-c2ccc(Cl)cc2Cl)o1

Output line:
103
106
-61

====

System: Plasmodium berghei (Pb-Luc) exoerythrocytic-stage parasites
measurement.conditions: concentration 0.00152416, first replicate series; fraction of control
property.measured: normalized signal at 0.00152416 (first series)
Give bare numbers.

[
  {
    "mol": "O=C(Cc1ccccn1)N1CC2(C1)[C@H](c1ccccc1)[C@H](CO)N2C(=O)c1ccncc1",
    "target.desc": "Plasmodium berghei (Pb-Luc) exoerythrocytic-stage parasites",
    "quantitative.result": 1.024
  },
  {
    "mol": "C/C=C/c1ccc([C@H]2[C@@H](CO)N(CC3CCCCC3)[C@@H]2CNC(C)C)cc1",
    "target.desc": "Plasmodium berghei (Pb-Luc) exoerythrocytic-stage parasites",
    "quantitative.result": 0.9222
  }
]

Kindly consider the entry below.
Input line: Entry COc1ccc(NC(=O)N(C)C[C@H]2Oc3c(NC(=O)CCCCCC(=O)Nc4ccccc4N)cccc3C(=O)N([C@H](C)CO)C[C@H]2C)cc1 : reported normalized signal at 0.00152416 (first series) = ?
Output line: 0.9022

====

Tested on: HepG2-A16-CD81EGFP cells
measurement.conditions: human, 50 uM
property.measured: HepG2 Tox% @ 50 uM rep2 (%)
Give bare numbers, in %.

Previously resolved entries follow.
[
  {
    "compound": "CCC(c1ccccc1)c1nn2c(-c3cccs3)nnc2s1 (centres unmarked)",
    "target.desc": "HepG2-A16-CD81EGFP cells",
    "reading.unit": "%",
    "quantitative.result": 96
  },
  {
    "compound": "COc1ccc(CCN2CCC(CN(C)Cc3cnn(-c4ccccc4)c3)CC2)cc1",
    "target.desc": "HepG2-A16-CD81EGFP cells",
    "reading.unit": "%",
    "quantitative.result": 100
  },
  {
    "compound": "COCCN(C(=O)Cc1cccs1)C(C(=O)NCc1ccc(OC)cc1)c1ccc(C(C)C)cc1 (centres unmarked)",
    "target.desc": "HepG2-A16-CD81EGFP cells",
    "reading.unit": "%",
    "quantitative.result": 100
  },
  {
    "compound": "Cc1cc(N2CCN(C3CCCC3)CC2)n2c(nc3ccccc32)c1C#N",
    "target.desc": "HepG2-A16-CD81EGFP cells",
    "reading.unit": "%",
    "quantitative.result": -11
  }
]

Kindly consider the entry below.
Input line: Entry CN(C)CCCNc1c2ccccc2nc2ccccc12 : reported HepG2 Tox% @ 50 uM rep2 = ?
Output line: 100

====

Tested on: Plasmodium berghei (Pb-Luc) exoerythrocytic-stage parasites
measurement.conditions: concentration 10, second series of dose columns
Please go through the items and note down their normalised signal at concentration 10 (second series).
One number for each entry.

Previously resolved entries follow.
[
  {
    "mol": "O=C(C1CCOCC1)N1C[C@@H]2[C@H](c3ccccc31)[C@H](CO)N2C(=O)Cc1ccccn1",
    "quantitative.result": 0.9177
  },
  {
    "mol": "C[C@H](CO)N1C[C@H](C)[C@@H](CN(C)S(=O)(=O)c2ccc(F)cc2)OCCCC[C@H](C)Oc2ccc(N(C)C)cc2C1=O",
    "quantitative.result": 0.607
  },
  {
    "mol": "C[C@@H]1CN([C@@H](C)CO)C(=O)c2cccc(NC(=O)c3ccc(-c4nccs4)cc3)c2O[C@@H]1CN(C)C(=O)Nc1ccc(C(F)(F)F)cc1",
    "quantitative.result": 0.5157
  }
]

Kindly consider the entry below.
Input line: Entry COc1ccc(NC(=O)N(C)C[C@H]2Oc3c(NC(=O)CCCCCC(=O)Nc4ccccc4N)cccc3C(=O)N([C@@H](C)CO)C[C@H]2C)cc1 : reported normalised signal at concentration 10 (second series) = ?
Output line: 1.187

====

Tested on: Plasmodium berghei (Pb-Luc) exoerythrocytic-stage parasites
measurement.conditions: concentration 0.00152416, first replicate series; fraction of control
Please go through the items and note down their normalized signal at 0.00152416 (first series).

Previously resolved entries follow.
[
  {
    "mol": "O=C(C[C@@H]1CC[C@@H]2[C@H](COC[C@@H](O)CN2C(=O)c2ccncc2)O1)Nc1ccc(-c2ccccc2)cc1",
    "result": 0.9014
  },
  {
    "mol": "C[C@@H]1CN([C@H](C)CO)C(=O)c2ccccc2-c2ccccc2CO[C@H]1CN(C)C(=O)[C@H](Cc1ccccc1)N(C)C",
    "result": 0.9571
  },
  {
    "mol": "N#C[C@@H]1[C@H](c2ccccc2C2=CCCC2)[C@H](CO)N1C(=O)C1CCOCC1",
    "result": 1.021
  },
  {
    "mol": "COc1ccc(NC(=O)N(C)C[C@H]2Oc3ccc(NC(=O)Nc4cccc5ccccc45)cc3CC(=O)N([C@@H](C)CO)C[C@@H]2C)cc1",
    "result": 1.086
  },
  {
    "mol": "C[C@@H]1CN([C@H](C)CO)C(=O)c2cccc(NC(=O)c3ccc(-c4nccs4)cc3)c2O[C@H]1CN(C)C(=O)Nc1ccc(C(F)(F)F)cc1",
    "result": 0.8666
  }
]

Kindly consider the entry below.
Input line: Entry C[C@H]1CN([C@@H](C)CO)C(=O)c2cccc(NC(=O)c3ccc(-c4nccs4)cc3)c2O[C@@H]1CN(C)C(=O)Nc1ccc(C(F)(F)F)cc1 : reported normalized signal at 0.00152416 (first series) = ?
Output line: 0.8855

====

Tested on: Plasmodium berghei (Pb-Luc) exoerythrocytic-stage parasites
measurement.conditions: second series; concentration 0.00152416; fraction of control
property.measured: normalized signal at concentration 0.00152416
Numbers only.

Previously resolved entries follow.
[
  {
    "molecule": "COCC(=O)N1C[C@H](C)[C@@H](OC)CN(C)C(=O)c2ccc(NC(=O)Nc3cccc(F)c3)cc2OC[C@@H]1C [BRD-K86826411-001-01-1]",
    "target.desc": "Plasmodium berghei (Pb-Luc) exoerythrocytic-stage parasites",
    "quantitative.result": 1.0576
  },
  {
    "molecule": "C[C@@H]1CN([C@@H](C)CO)C(=O)c2cccc(NC(=O)C3CC3)c2O[C@@H]1CN(C)C(=O)Nc1ccc(C(F)(F)F)cc1 [BRD-K19818397-001-01-8]",
    "target.desc": "Plasmodium berghei (Pb-Luc) exoerythrocytic-stage parasites",
    "quantitative.result": 1.02
  },
  {
    "molecule": "COc1ccc(S(=O)(=O)N(C)C[C@H]2Oc3ccc(NC(=O)Cc4cn(C)c5ccccc45)cc3C(=O)N([C@H](C)CO)C[C@@H]2C)cc1 [BRD-K30240821-001-02-4]",
    "target.desc": "Plasmodium berghei (Pb-Luc) exoerythrocytic-stage parasites",
    "quantitative.result": 0.893
  },
  {
    "molecule": "COc1ccc(NC(=O)N(C)C[C@H]2Oc3ccc(NC(=O)CCN4CCOCC4)cc3C(=O)N([C@H](C)CO)C[C@@H]2C)cc1 [BRD-K36853881-001-02-5]",
    "target.desc": "Plasmodium berghei (Pb-Luc) exoerythrocytic-stage parasites",
    "quantitative.result": 0.81
  },
  {
    "molecule": "C[C@@H]1CCCCO[C@@H](CN(C)S(=O)(=O)c2ccc(F)cc2)[C@@H](C)CN([C@@H](C)CO)C(=O)c2cc(N(C)C)ccc2O1 [BRD-K74261250-001-01-9]",
    "target.desc": "Plasmodium berghei (Pb-Luc) exoerythrocytic-stage parasites",
    "quantitative.result": 0.834
  },
  {
    "molecule": "C[C@@H]1CN([C@H](C)CO)C(=O)c2cc(N(C)C)ccc2O[C@@H](C)CCCCO[C@@H]1CN(C)S(=O)(=O)c1ccc(F)cc1 [BRD-K12341671-001-01-5]",
    "target.desc": "Plasmodium berghei (Pb-Luc) exoerythrocytic-stage parasites",
    "quantitative.result": 1.15
  },
  {
    "molecule": "C[C@H](CO)N1C[C@H](C)[C@@H](CN(C)C(=O)Nc2ccc(C(F)(F)F)cc2)Oc2c(NC(=O)c3ccc(-c4nccs4)cc3)cccc2C1=O [BRD-K70940716-001-01-0]",
    "target.desc": "Plasmodium berghei (Pb-Luc) exoerythrocytic-stage parasites",
    "quantitative.result": 0.9924
  }
]

Kindly consider the entry below.
Input line: Entry CN(C)C(=O)c1ccc(-c2ccc([C@@H]3[C@H]4CN(C(=O)CC5CC5)CC(=O)N4[C@H]3CO)cc2)cc1 [BRD-K27481961-001-01-1] : reported normalized signal at concentration 0.00152416 = ?
Output line: 1.04
